- system.under.test: von Hippel-Lindau disease tumor suppressor/Tyrosine-protein phosphatase non-receptor type 2 (Homo sapiens, UniProt P17706+P40337)
- assay.details: PROTAC activity at VHL/PTPN2 in human Jurkat cells assessed as induction of PTPN2 degradation at 1 uM by Western blot analysis relative to control
- Type: cell-based
attribute.measured: Activity (%)
Dear colleague, please return just the value in %, with no unit written.

What value of Activity has been reported for the following compound? "Cc1ncsc1-c1ccc([C@H](C)NC(=O)[C@@H]2C[C@@H](O)CN2C(=O)[C@@H](NC(=O)CCCCCCCCNC(=O)Cn2cc(-c3ccc4cc(O)c(N5CC(=O)NS5(=O)=O)c(F)c4c3)cn2)C(C)(C)C)cc1"
60

Proceed to "Cc1ncsc1-c1ccc([C@H](C)NC(=O)[C@@H]2C[C@@H](O)CN2C(=O)[C@@H](NC(=O)CCCNC(=O)Cn2cc(-c3ccc4cc(O)c(N5CC(=O)NS5(=O)=O)c(F)c4c3)cn2)C(C)(C)C)cc1"
81

Switching to the query record.
Give its Activity value. Item: "Cc1ncsc1-c1ccc([C@H](C)NC(=O)[C@@H]2C[C@@H](O)CN2C(=O)[C@@H](NC(=O)CNC(=O)Cn2cc(-c3ccc4cc(O)c(N5CC(=O)NS5(=O)=O)c(F)c4c3)cn2)C(C)(C)C)cc1"
33

* * *

- system.under.test: Tyrosine-protein phosphatase non-receptor type 1 (Homo sapiens, UniProt P18031)
- assay.details: Inhibition of 6xHis-tagged PTP1B (unknown origin) Escherichia coli BL21 (DE3)-RIL using OMFP as substrate incubated for 30 mins by fluorescence based assay
attribute.measured: IC50 (nM)
All answers are understood in nM, so give the number only.

IC50 lookup needed for "CC(C)(C)C(=O)Nc1ccc2c(c1)C(=O)C(=O)c1ccccc1-2" , thanks.
950

* * *

- system.under.test: Tyrosine-protein phosphatase non-receptor type 1 (Homo sapiens, UniProt P18031)
- Sequence (P18031 whole entry): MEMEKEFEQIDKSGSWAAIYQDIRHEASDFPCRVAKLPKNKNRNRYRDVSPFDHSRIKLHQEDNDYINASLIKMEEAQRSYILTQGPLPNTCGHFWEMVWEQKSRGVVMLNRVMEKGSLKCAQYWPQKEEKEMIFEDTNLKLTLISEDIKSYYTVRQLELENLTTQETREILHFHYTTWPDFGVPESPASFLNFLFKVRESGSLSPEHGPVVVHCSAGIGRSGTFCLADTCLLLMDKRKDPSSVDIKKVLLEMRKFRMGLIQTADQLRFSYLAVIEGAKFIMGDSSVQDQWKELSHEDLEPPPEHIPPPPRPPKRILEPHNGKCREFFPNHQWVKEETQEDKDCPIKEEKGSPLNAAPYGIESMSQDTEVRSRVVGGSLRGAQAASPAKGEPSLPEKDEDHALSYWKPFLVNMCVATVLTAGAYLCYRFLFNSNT
- assay.details: Inhibition of PTP1B (unknown origin) using DiFMUP as substrate by […] based assay
attribute.measured: IC50 (nM)
Numbers only; they are read as nM.

Value lookup for IC50; key = "O=C1CN(c2c(O)cc3ccc(Br)cc3c2F)S(=O)(=O)N1"
8.39

* * *

- system.under.test: Tyrosine-protein phosphatase non-receptor type 2 (Homo sapiens)
- Sequence (P17706 whole entry): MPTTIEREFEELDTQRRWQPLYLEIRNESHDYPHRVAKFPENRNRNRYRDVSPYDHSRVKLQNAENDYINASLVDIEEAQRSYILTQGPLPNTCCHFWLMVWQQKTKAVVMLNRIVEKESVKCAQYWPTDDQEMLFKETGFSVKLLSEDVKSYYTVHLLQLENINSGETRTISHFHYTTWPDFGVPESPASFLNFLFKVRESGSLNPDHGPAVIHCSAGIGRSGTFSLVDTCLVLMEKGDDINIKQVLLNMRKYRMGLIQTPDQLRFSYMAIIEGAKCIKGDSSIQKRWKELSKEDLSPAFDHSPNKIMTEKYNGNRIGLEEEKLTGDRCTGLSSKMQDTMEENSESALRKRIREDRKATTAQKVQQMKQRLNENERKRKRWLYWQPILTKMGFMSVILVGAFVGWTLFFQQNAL
attribute.measured: pIC50
# pIC50 is unitless: minus log10 of the molar concentration; print number only

# query: pIC50 of entry "O=C1CN(c2c(O)cc3ccc(Br)cc3c2F)S(=O)(=O)N1"
7.94

* * *

// reported Activity per item
- system.under.test: von Hippel-Lindau disease tumor suppressor/Tyrosine-protein phosphatase non-receptor type 2 (Homo sapiens, UniProt P17706+P40337)
- assay.details: PROTAC activity at VHL/PTPN2 in human Jurkat cells assessed as induction of PTPN2 degradation at 10 uM by Western blot analysis relative to control
- Assay type: cell-based
Hi, when you answer, please include the unit after the number. Thanks!

// below: answered compounds
What value of Activity has been recorded for this entry: "Cc1ncsc1-c1ccc([C@H](C)NC(=O)[C@@H]2C[C@@H](O)CN2C(=O)[C@@H](NC(=O)CCCCCCCCNC(=O)Cn2cc(-c3ccc4cc(O)c(N5CC(=O)NS5(=O)=O)c(F)c4c3)cn2)C(C)(C)C)cc1"
94%

And for "Cc1ncsc1-c1ccc([C@H](C)NC(=O)[C@@H]2C[C@@H](O)CN2C(=O)[C@@H](NC(=O)CCCCCCNC(=O)Cn2cc(-c3ccc4cc(O)c(N5CC(=O)NS5(=O)=O)c(F)c4c3)cn2)C(C)(C)C)cc1" ?
99%

Continue with "Cc1ncsc1-c1ccc([C@H](C)NC(=O)[C@@H]2C[C@@H](O)CN2C(=O)[C@@H](NC(=O)CCCCNC(=O)Cn2cc(-c3ccc4cc(O)c(N5CC(=O)NS5(=O)=O)c(F)c4c3)cn2)C(C)(C)C)cc1"
92%

Next:
// returns reported Activity for input "Cc1ncsc1-c1ccc([C@H](C)NC(=O)[C@@H]2C[C@@H](O)CN2C(=O)[C@@H](NC(=O)CCCCCNC(=O)Cn2cc(-c3ccc4cc(O)c(N5CC(=O)NS5(=O)=O)c(F)c4c3)cn2)C(C)(C)C)cc1"
99%

* * *

- system.under.test: von Hippel-Lindau disease tumor suppressor/Tyrosine-protein phosphatase non-receptor type 2 (Homo sapiens, UniProt P17706+P40337)
- assay.details: PROTAC activity at VHL/PTPN2 in human Jurkat cells assessed as induction of PTPN2 degradation at 10 uM by Western blot analysis relative to control
- Format: cell-based
attribute.measured: Activity
The reply should consist of the numeric value with the unit placed after it.

Sample answers from the record:
I have this compound here, "Cc1ncsc1-c1ccc([C@H](C)NC(=O)[C@@H]2C[C@@H](O)CN2C(=O)[C@@H](NC(=O)CNC2CCN(C(=O)Cn3cc(-c4ccc5cc(O)c(N6CC(=O)NS6(=O)=O)c(F)c5c4)cn3)CC2)C(C)(C)C)cc1" , and I need its recorded Activity.
99%

And the next one, "Cc1ncsc1-c1ccc([C@H](C)NC(=O)[C@@H]2C[C@@H](O)CN2C(=O)[C@@H](NC(=O)Cn2cc(-c3ccc4cc(O)c(N5CC(=O)NS5(=O)=O)c(F)c4c3)cn2)C(C)(C)C)cc1" ?
-53%

---
Given the entry "Cc1ncsc1-c1ccc([C@H](C)NC(=O)[C@@H]2C[C@@H](O)CN2C(=O)[C@@H](NC(=O)CCCCCCCCCCNC(=O)Cn2cc(-c3ccc4cc(O)c(N5CC(=O)NS5(=O)=O)c(F)c4c3)cn2)C(C)(C)C)cc1" , report its measured Activity.
98%

* * *

- system.under.test: von Hippel-Lindau disease tumor suppressor/Tyrosine-protein phosphatase non-receptor type 2 (Homo sapiens, UniProt P17706+P40337)
- assay.details: PROTAC activity at VHL/PTPN2 in human Jurkat cells assessed as induction of PTPN2 degradation at 100 nM by Western blot analysis relative to control
- Format: cell-based
attribute.measured: Activity (%)
Dear colleague, please return just the value in %, with no unit written.

# Activity lookup, item "Cc1ncsc1-c1ccc([C@H](C)NC(=O)[C@@H]2C[C@@H](O)CN2C(=O)[C@@H](NC(=O)CCNC2CCN(C(=O)Cn3cc(-c4ccc5cc(O)c(N6CC(=O)NS6(=O)=O)c(F)c5c4)cn3)CC2)C(C)(C)C)cc1"
15

What do we get for "Cc1ncsc1-c1ccc([C@H](C)NC(=O)[C@@H]2C[C@@H](O)CN2C(=O)[C@@H](NC(=O)c2cn(CCCNC(=O)Cn3cc(-c4ccc5cc(O)c(N6CC(=O)NS6(=O)=O)c(F)c5c4)cn3)nn2)C(C)(C)C)cc1" ?
-2

Entry to check: "Cc1ncsc1-c1ccc([C@H](C)NC(=O)[C@@H]2C[C@@H](O)CN2C(=O)[C@@H](NC(=O)CCCCCCCCCCNC(=O)Cn2cc(-c3ccc4cc(O)c(N5CC(=O)NS5(=O)=O)c(F)c4c3)cn2)C(C)(C)C)cc1"
4

Entry to check: "Cc1ncsc1-c1ccc([C@H](C)NC(=O)[C@@H]2C[C@@H](O)CN2C(=O)[C@@H](NC(=O)CCCCCNC(=O)Cn2cc(-c3ccc4cc(O)c(N5CC(=O)NS5(=O)=O)c(F)c4c3)cn2)C(C)(C)C)cc1"
43

// next item, Activity requested
Field request: Activity | item: "Cc1ncsc1-c1ccc([C@H](C)NC(=O)[C@@H]2C[C@@H](O)CN2C(=O)[C@@H](NC(=O)CCCCCCCCNC(=O)Cn2cc(-c3ccc4cc(O)c(N5CC(=O)NS5(=O)=O)c(F)c4c3)cn2)C(C)(C)C)cc1"
27
